Record: compiled IC50 on Dual specificity protein kinase CLK1 (Homo sapiens) from multiple reports.

INSERT INTO assay_data (molecule, tgt, valuemeasured) VALUES
  ('COc1cc(S(=O)(=O)N2CCOCC2)ccc1Nc1nc(NC2CC2)c2c(C#N)c[nH]c2n1', 'Dual specificity protein kinase CLK1 (Homo sapiens)', '301 to 1000 nM'),
  ('COc1cc(S(C)(=O)=O)ccc1Nc1cc(C2CC2)c2c(C(F)(F)F)c[nH]c2n1', 'Dual specificity protein kinase CLK1 (Homo sapiens)', '301 to 1000 nM'),
  ('COc1cc(P2(=O)CCN(C3COC3)CC2)ccc1Nc1nc(NC2CCCC2)c2cc[nH]c2n1', 'Dual specificity protein kinase CLK1 (Homo sapiens)', '301 to 1000 nM'),
  ('COc1cc(S(=O)(=O)N2CCC(N3CCOCC3)CC2)ccc1Nc1nc(NC2CCC2)c2c(C(F)(F)F)c[nH]c2n1', 'Dual specificity protein kinase CLK1 (Homo sapiens)', '301 to 1000 nM'),
  ('CCCNc1nc(Nc2ccc(S(=O)(=O)N3CCOCC3)cc2OC)nc2[nH]cc(C(F)(F)F)c12', 'Dual specificity protein kinase CLK1 (Homo sapiens)', '301 to 1000 nM'),
  ('CC(C)Oc1nn(CCO)c2c1/C=C/c1n[nH]c3cc(F)c(cc13)-c1cnn(C)c1O[C@H](C)[C@H]1CCCN1C2 (single isomer, unassigned)', 'Dual specificity protein kinase CLK1 (Homo sapiens)', '0.82 nM'),
  ('CC(C)Nc1cc(Nc2ccc(C(=O)N3CCOCC3)c3c2OCCO3)nc2[nH]ccc12', 'Dual specificity protein kinase CLK1 (Homo sapiens)', '301 to 1000 nM'),
  ('COCCNc1cc(Nc2ccc(S(C)(=O)=O)cc2OC)nc2[nH]cc(C#N)c12', 'Dual specificity protein kinase CLK1 (Homo sapiens)', '301 to 1000 nM'),
  ('CCNc1nc(Nc2ccc(C(=O)N3CCN(C4COC4)CC3)c3c2OCCO3)nc2[nH]cc(C#N)c12', 'Dual specificity protein kinase CLK1 (Homo sapiens)', '< 100 nM'),
  ('CNc1cc(Nc2ccc(S(=O)(=O)N3CCC(N4C[C@H]5C[C@@H]4CO5)CC3)cc2OC)nc2[nH]cc(C(F)(F)F)c12', 'Dual specificity protein kinase CLK1 (Homo sapiens)', '< 100 nM');

What measured IC50 goes with CS(=O)(=O)CCNc1cc(Nc2ccc(C(=O)N3CCOCC3)c3c2OCCO3)nc2[nH]cc(Cl)c12 ?
301 to 1000 nM

// query: O=S(=O)(c1ccc(Nc2nc(C3CC3)c3c(C(F)(F)F)c[nH]c3n2)c2c1OCCO2)N1CCOCC1
301 to 1000 nM

// query: COc1cc(P2(=O)CCN(C3CC3)CC2)ccc1Nc1cc(NC2CC2)c2c(C(F)(F)F)c[nH]c2n1
301 to 1000 nM

// query: COc1cc(S(=O)(=O)N2CCOCC2)ccc1Nc1nc(NC2CC2)c2cc[nH]c2n1
301 to 1000 nM

// query: N#Cc1c[nH]c2nc(Nc3ccc(C(=O)N4CCC(N5CCOCC5)CC4)c4c3OCC4)nc(NC3CCCCC3)c12
< 100 nM

// query: CCCCNc1nc(Nc2ccc(C(=O)N3CC(CO)(CO)C3)c3c2OCCO3)nc2[nH]cc(C#N)c12
< 100 nM

###

Record: compiled IC50 on Dual specificity protein kinase CLK1 (Homo sapiens) from multiple reports.

Below: 5 compounds and their reported IC50.
INSERT INTO results (compoundstructurestring, readoutname, valuemeasured) VALUES
  ('N#Cc1c[nH]c2nc(Nc3ccc(C(=O)N4CC(CO)(CO)C4)c4c3OCCO4)nc(NCC3CCC3)c12', 'IC50', '< 100 nM'),
  ('O=C(c1ccc(Nc2nc(NC3CCC3)c3c(C(F)(F)F)c[nH]c3n2)c2c1OCCO2)N1CCC(N2CCOCC2)CC1', 'IC50', '< 100 nM'),
  ('CCN1Cc2c(c(C)nn2C)/C=C/c2n[nH]c3ccc(cc23)-c2cnn(C)c2O[C@@H](C)C1', 'IC50', '0.1 nM'),
  ('CN1Cc2ccccc2N(C)c2cc(Nc3ccn(C4CCNCC4)n3)ncc21', 'IC50', '2700 nM'),
  ('COc1cc(P(C)(C)=O)ccc1Nc1nc(NC(C)C)c2c(C#N)c[nH]c2n1', 'IC50', '301 to 1000 nM');

What measured IC50 goes with COc1cc(S(=O)(=O)N2CCOCC2)ccc1Nc1nc(NC(C)C)c2c(C(F)(F)F)c[nH]c2n1 ?
301 to 1000 nM

// query: CCNc1cc(Nc2ccc(S(=O)(=O)N3CCC(N4CCOCC4)CC3)c3c2OCCO3)nc2[nH]cc(C(F)(F)F)c12
101 to 300 nM

###

pIC50: −log10 of the molar value.
Record: compiled pIC50 on Dual specificity protein kinase CLK1 (Homo sapiens) from multiple reports.

Below: 8 compounds and their reported pIC50.
INSERT INTO results (compoundstructurestring, readoutname, valuemeasured) VALUES
  ('Cc1onc2c1/C=C/c1n[nH]c3ccc(cc13)-c1cnn(C)c1O[C@@H](C)CN(C)C2', 'pIC50', 9.54),
  ('O=C(c1ccc(Nc2nc(NCC3CCCC3)c3c(C(F)(F)F)c[nH]c3n2)c2c1CCO2)N1CCOCC1', 'pIC50', '6.00 to 6.52'),
  ('CCN1Cc2c(c(OC(C)C)nn2[C@@H](C)CO)/C=C/c2n[nH]c3cc(F)c(cc23)-c2cnn(C)c2O[C@@H](C)C1', 'pIC50', 8.69),
  ('O=C(c1ccc(Nc2nc(NC3CCCCC3)c3cc[nH]c3n2)c2c1CCO2)N1CCOCC1', 'pIC50', '6.00 to 6.52'),
  ('COc1cc(S(=O)(=O)N2CCOCC2)ccc1Nc1cc(C2CC2)c2c(C#N)c[nH]c2n1', 'pIC50', '6.00 to 6.52'),
  ('C[C@H]1CN(C)Cc2c(c(OC3CCN(S(C)(=O)=O)CC3)nn2C)/C=C/c2n[nH]c3ccc(cc23)-c2cnn(C)c2O1', 'pIC50', 9.72),
  ('CCc1nc(Nc2ccc(C(=O)N3CCC(N4CCOCC4)CC3)c3c2OCCO3)nc2[nH]cc(C(F)(F)F)c12', 'pIC50', '6.52 to 7.00'),
  ('O=C(c1ccc(Nc2nc(NCC3CC3)c3cc[nH]c3n2)c2c1OCCO2)N1CCOCC1', 'pIC50', '6.00 to 6.52');

What measured pIC50 goes with COc1cc(P2(=O)CCN(C3CC3)CC2)ccc1Nc1nc(NCCS(C)(=O)=O)c2c(C#N)c[nH]c2n1 ?
6.52 to 7.00

// query: CCNc1cc(Nc2ccc(P3(=O)CCN(C(C)=O)CC3)cc2OC)nc2[nH]cc(C(F)(F)F)c12
6.52 to 7.00

// query: CNc1cc(Nc2ccc(S(=O)(=O)N3CCC(N4CCOCC4)CC3)cc2OC)nc2[nH]cc(Cl)c12
6.00 to 6.52

// query: COc1cc(P(C)(C)=O)ccc1Nc1nc(NC(C)C)c2c(C(F)(F)F)c[nH]c2n1
6.52 to 7.00

// query: C[C@H](C#N)Oc1nn(CCO)c2c1/C=C/c1n[nH]c3cc(F)c(cc13)-c1cnn(C)c1O[C@@H](C)CN(C)C2
9.24

###

Record: compiled IC50 on Dual specificity protein kinase CLK1 (Homo sapiens, UniProt P49759) from multiple reports.

Below: 6 compounds and their reported IC50.
INSERT INTO results (compoundstructurestring, valuemeasured) VALUES
  ('COCCNc1cc(Nc2ccc(P3(=O)CCN(C4COC4)CC3)cc2OC)nc2[nH]cc(C#N)c12', '101 to 300 nM'),
  ('C[C@H]1CN(C)Cc2onc(C3CC3)c2/C=C/c2n[nH]c3ccc(cc23)-c2cnn(C)c2O1', '0.7 nM'),
  ('COc1cc(S(=O)(=O)N2CCOCC2)ccc1Nc1nc(NC2CCCC2)c2c(C(F)(F)F)c[nH]c2n1', '301 to 1000 nM'),
  ('CCNc1nc(Nc2ccc(C(=O)N3CCOCC3)c3c2OCCO3)nc2[nH]cc(C#N)c12', '< 100 nM'),
  ('O=C(c1ccc(Nc2nc(N[C@@H]3CCOC3)c3c(C(F)(F)F)c[nH]c3n2)c2c1OCCO2)N1CCN(C2COC2)CC1', '< 100 nM'),
  ('CNc1nc(Nc2ccc(C(=O)N3CC[C@@H](N4CCOCC4)C3)c3c2OCC3)nc2[nH]cc(C(F)(F)F)c12', '< 100 nM');

Please examine the following record next.
What measured IC50 goes with CCNc1cc(Nc2ccc(P3(=O)CCN(C4CCOCC4)CC3)cc2OC)nc2[nH]cc(C(F)(F)F)c12 ?
101 to 300 nM
